# maps each entry to its IC50
Test system: p-SLP76 phosphorylation of Jurkat cells
Test: Assay for inhibitory activity against p-SLP76 phosphorylation of Jurkat cells
Type: cell-based
Conditions: Homo sapiens, 0.5 h, stimulator CD3CD28, 30 min, read-out: IC50 (nM) for inhibition of p-SLP76 phosphorylation of Jurkat cells

Some solved cases for reference:
CN(C)Cc1nc(Nc2ccc(-c3cnc4ccc5c(n34)CCO5)c3c2C(=O)NC3)ccc1C1CCOCC1
50 to 100 nM
CC(=O)N(C)c1ccc(Nc2ccc(-c3cnn4ccc5occc5c34)c3c2C(=O)NC3)nc1CN(C)C
< 50 nM

**Q:** Give measured IC50 for CN(C)Cc1nc(Nc2ccc(-c3cnc4cnc5occc5n34)c3c2C(=O)NC3)ccc1C1CCOC1 (stereo not shown) (p-SLP76 phosphorylation of Jurkat cells).
**A:** < 50 nM

**Q:** Give measured IC50 for CN(C)Cc1nc(Nc2ccc(-c3cnc4cnc5occc5n34)c3c2C(=O)NC3)ccc1C1CCN(C)C(=O)C1 (stereo not shown) (p-SLP76 phosphorylation of Jurkat cells).
**A:** 50 to 100 nM

**Q:** Give measured IC50 for CN(C)Cc1nc(Nc2ccc(-c3cnc4ccc5occc5n34)c3c2C(=O)NC3)ccc1C1CCN(C)C(=O)C1 (stereo not shown) (p-SLP76 phosphorylation of Jurkat cells).
**A:** < 50 nM

**Q:** Give measured IC50 for `CN(C)Cc1nc(Nc2ccc(-c3cnc4ccc5occc5n34)c3c2C(=O)NC3)ccc1C1CCOCC1` (p-SLP76 phosphorylation of Jurkat cells).
**A:** < 50 nM

**Q:** Give measured IC50 for `CN(C)Cc1nc(Nc2ccc(-c3ncnc4[nH]c5c(c34)CCC5)c3c2C(=O)NC3)ccc1C1CCOCC1` (p-SLP76 phosphorylation of Jurkat cells).
**A:** 50 to 100 nM
